Attribution: ChEMBL document CHEMBL1155286

Tested on: Trypanosoma cruzi
MEASUREMENT_NOTES: Inhibition of Mitochondrial dehydrogenase in Trypanosoma cruzi Y epimastigotes at 20 uM after 30 to 240 mins by MTT dye reduction assay in relative to control
Calls of active or inactive are those of the source. The rule behind the calls is not given here.
MEASURE_NAME: Activity

Completed entries (count: 5):
{"COMPOUND": "O=C(Cn1ccnc1[N+](=O)[O-])NCc1ccccc1 [BENZNIDAZOLE]", "MEASURE_NAME": "Activity", "MEASURED_VALUE": "Active"}
{"COMPOUND": "Cc1ccc2c(c1)=[N+]([O-])C(C)(C)[N+]=2[O-]", "MEASURE_NAME": "Activity", "MEASURED_VALUE": "inactive"}
{"COMPOUND": "[O-][N+]1=c2ccc(Br)cc2=[N+]([O-])C12CCCC2", "MEASURE_NAME": "Activity", "MEASURED_VALUE": "inactive"}
{"COMPOUND": "Cc1c(Sc2ccccc2)[n+]([O-])c2cc(Cl)c(Cl)cc2[n+]1[O-]", "MEASURE_NAME": "Activity", "MEASURED_VALUE": "Active"}
{"COMPOUND": "CC1CS(=O)(=O)CCN1/N=C/c1ccc([N+](=O)[O-])o1 (stereo unspecified) [NIFURTIMOX]", "MEASURE_NAME": "Activity", "MEASURED_VALUE": "inactive"}

Moving on to the next compound.
Query: Recall and state the measured Activity for Cc1ccc2c(c1)=[N+]([O-])C1(CCCC1)[N+]=2[O-] .
Result: inactive

====

Test system: Trypanosoma cruzi
MEASUREMENT_NOTES: Antitrypanosomal activity against Trypanosoma cruzi Colombiana assessed as parasitic cytotoxicity at 25 uM after 5 days by MTT assay
Assay type: functional
Exercise: for every item that follows, state its recorded Activity.

Query: Enter recorded Activity with Trypanosoma cruzi for CC1(C)[N+]([O-])=c2ccc(/C=C/c3ccccc3)cc2=[N+]1[O-] here.
Result: 92.3%

Query: // output Activity; input COc1ccc(CC2(C)[N+]([O-])=c3ccccc3=[N+]2[O-])cc1 ; system Trypanosoma cruzi
Result: 30.8%

Query: State Activity (Trypanosoma cruzi) of Cc1ccc2c(c1)=[N+]([O-])C1(CCCC1)[N+]=2[O-] .
Result: 59.3%

Query: Please respond with reported Activity (system Trypanosoma cruzi) for CC1(C)[N+]([O-])=c2cc(Cl)c(Cl)cc2=[N+]1[O-] .
Result: 94.4%

Query: Recall the reported Activity of [O-][N+]1=c2ccc(Br)cc2=[N+]([O-])C12CCCC2 when tested on Trypanosoma cruzi.
Result: 83.8%

Query: Tell me Activity of [O-][N+]1=c2cc(Cl)c(Cl)cc2=[N+]([O-])C12CCCC2 when tested on Trypanosoma cruzi.
Result: 60.9%

Query: Recall the reported Activity of CC1(C)[N+]([O-])=c2ccc(/C=N/O)cc2=[N+]1[O-] when tested on Trypanosoma cruzi.
Result: 21.7%

Query: Fetch value of Activity on Trypanosoma cruzi for Cc1ccc2c(c1)=[N+]([O-])C(C)(C)[N+]=2[O-] .
Result: 35.1%

Query: Fetch value of Activity on Trypanosoma cruzi for CCCCCC1(C)[N+]([O-])=c2ccccc2=[N+]1[O-] .
Result: 77.1%

Query: Send back Trypanosoma cruzi Activity of CC1CS(=O)(=O)CCN1/N=C/c1ccc([N+](=O)[O-])o1 (centres undefined) [NIFURTIMOX] only.
Result: 87%

Query: Name the recorded Activity of [O-][N+]1=c2ccccc2=[N+]([O-])C12CCCC2 , assay system Trypanosoma cruzi.
Result: 94.8%

Query: Find Activity for COc1ccc2c(c1)=[N+]([O-])C1(CCCC1)[N+]=2[O-] on Trypanosoma cruzi and write it down.
Result: 17.3%

Query: Look up Trypanosoma cruzi data: Activity of CC1(Cc2ccccc2)[N+]([O-])=c2ccccc2=[N+]1[O-] , then report it.
Result: 18.6%

Query: GET Activity | system: Trypanosoma cruzi | item: [O-][N+]1=c2ccc(/C=N/O)cc2=[N+]([O-])C12CCCC2
Result: 29%
